Data origin, for the record: patent US7816353B2

Listed compounds paired with reported pIC50
molecular target: p70S6K (Homo sapiens, UniProt P23443, T412E); construct: human p70S6 kinase domain residues 1-421, containing a T412E mutation; made in house; test: p70S6 Kinase Assay (Luciferase-Coupled Chemiluminescent Kinase assay, LCCA); format: biochemical; details: human p70S6 kinase domain residues 1-421, T412E; 5 μM ATP; read-out: p70S6K IC50
Sequence (P23443 1-421 T412E): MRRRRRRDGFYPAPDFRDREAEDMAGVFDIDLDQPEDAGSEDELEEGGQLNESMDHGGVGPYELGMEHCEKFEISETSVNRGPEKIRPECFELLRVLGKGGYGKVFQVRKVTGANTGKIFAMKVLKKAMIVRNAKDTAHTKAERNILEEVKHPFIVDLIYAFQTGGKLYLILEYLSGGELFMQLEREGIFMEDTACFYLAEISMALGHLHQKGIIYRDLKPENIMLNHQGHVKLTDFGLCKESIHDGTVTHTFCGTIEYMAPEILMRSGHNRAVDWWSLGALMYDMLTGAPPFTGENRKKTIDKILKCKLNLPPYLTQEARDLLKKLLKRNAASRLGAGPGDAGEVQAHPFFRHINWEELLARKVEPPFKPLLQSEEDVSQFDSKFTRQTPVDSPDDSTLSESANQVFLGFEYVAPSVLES
pIC50: −log10 of the molar value.

CSc1nc(N)nc(NCC(=O)Nc2cccc(C(F)(F)F)c2)c1C#N : 6.30 to 7.30
CSc1nc(N)nc(SCC(=O)Nc2cc(C(F)(F)F)cc(C(F)(F)F)c2)c1C#N : < 5.70
Cc1nc(OCC(=O)Nc2cccc(C(F)(F)F)c2)c(C#N)c(C)c1[N+](=O)[O-] : > 7.30
C[C@@H](C(=O)Nc1cccc(C(F)(F)F)c1)N(C)c1nc(N)nc([S+](C)[O-])c1C#N (some centres unmarked) : < 5.70
CSc1nc(N)nc(OCC(=O)Nc2cccc(C(F)(F)F)c2)n1 : 6.30 to 7.30
CSc1nc(N)nc(N(C)[C@@H](C)C(=O)Nc2cccc(Br)c2)c1C#N : > 7.30
CSc1nc(N)nc(N(C)[C@@H](C)C(=O)Nc2cc(C(=O)NCCN3CCOCC3)cc(C(F)(F)F)c2)c1C#N : > 7.30

// switching to the query compound
Using the record for CSc1nc(N)nc(N(C)CC(=O)Nc2cccc(C(C)C)c2)c1C#N , report its pIC50.
< 5.70
